FYI, the data here is from patent US4166114A.

Tested on: Proteus vulgaris TB-162
Test: MIC (minimum inhibitory concentration)
Format: cell-based
Settings: Proteus vulgaris, TB162, Table 3; tobramycin resistant organism; read-out: MIC
Measured MIC values are reported for all entries that follow.
EXPERIMENTAL_ENDPOINT: MIC

COMPOUND | REPORTED
NC[C@H]1O[C@H](O[C@H]2[C@H](O)[C@@H](O[C@H]3O[C@H](CO)[C@@H](O)[C@H](N)[C@H]3O)[C@H](NC(=O)C3(O)CCNC3)C[C@@H]2N)[C@H](O)[C@@H](O)[C@@H]1O (stereo partly shown) | 3.13 µg/mL
NC[C@H]1O[C@H](O[C@H]2[C@H](O)[C@@H](O[C@H]3O[C@H](CO)[C@@H](O)[C@H](N)[C@H]3O)[C@H](N)C[C@@H]2N)[C@H](N)C[C@@H]1O | 6.25 µg/mL
NC[C@H]1O[C@H](O[C@H]2[C@H](O)[C@@H](O[C@H]3O[C@H](CO)[C@@H](O)[C@H](N)[C@H]3O)[C@H](N)C[C@@H]2N)[C@H](O)[C@@H](O)[C@@H]1O | > 100 µg/mL
NC[C@H]1O[C@H](O[C@H]2[C@H](O)[C@@H](O[C@H]3O[C@H](CO)[C@@H](O)[C@H](N)[C@H]3O)[C@H](NC(=O)C3(O)CCNCC3)C[C@@H]2N)[C@H](N)C[C@@H]1O | 1.56 µg/mL

###

Tested on: Proteus vulgaris TB-162
Test: MIC (minimum inhibitory concentration)
Format: cell-based
Conditions: Proteus vulgaris, TB162, Table 2; tobramycin resistant organism; read-out: MIC
EXPERIMENTAL_ENDPOINT: MIC

CHEM_SMILES | EXPERIMENTAL_ENDPOINT | REPORTED
NC[C@H]1O[C@H](O[C@H]2[C@H](O)[C@@H](O[C@H]3O[C@H](CO)[C@@H](O)[C@H](N)[C@H]3O)[C@H](N)C[C@@H]2N)[C@H](O)[C@@H](O)[C@@H]1O | MIC | > 200 µg/mL
CN[C@@H]1[C@@H](O)[C@@H](O[C@@H]2[C@@H](O)[C@H](O[C@H]3OC(CN)=CC[C@H]3N)[C@@H](N)C[C@H]2N)OC[C@]1(C)O | MIC | 12.5 µg/mL
NC[C@H]1O[C@H](O[C@H]2[C@H](O)[C@@H](O[C@H]3O[C@H](CO)[C@@H](O)[C@H](N)[C@H]3O)[C@H](N)C[C@@H]2N)[C@H](N)C[C@@H]1O | MIC | 12.5 µg/mL
NC[C@H]1O[C@H](O[C@H]2[C@H](O)[C@@H](O[C@H]3O[C@H](CO)[C@@H](O)[C@H](N)[C@H]3O)[C@H](NC(=O)C3(O)CCNCC3)C[C@@H]2N)[C@H](N)C[C@@H]1O | MIC | 6.25 µg/mL

###

System: Pseudomonas aeruginosa TB-151
Assay: MIC (minimum inhibitory concentration)
Type: cell-based
Details: Pseudomonas aeruginosa, TB151, Table 2; tobramycin resistant organism; read-out: MIC
Measured MIC values are reported for all entries that follow.

COMPOUND | BOUND_OPERATOR | MIC, µg/mL
NC[C@H]1O[C@H](O[C@H]2[C@H](O)[C@@H](O[C@H]3O[C@H](CO)[C@@H](O)[C@H](N)[C@H]3O)[C@H](N)C[C@@H]2N)[C@H](N)C[C@@H]1O [TOB, tobramycin] | = | 100
NC[C@H]1O[C@H](O[C@H]2[C@H](O)[C@@H](O[C@H]3O[C@H](CO)[C@@H](O)[C@H](N)[C@H]3O)[C@H](NC(=O)C3(O)CCNCC3)C[C@@H]2N)[C@H](N)C[C@@H]1O [TOB der.] | = | 6.25
NC[C@H]1O[C@H](O[C@H]2[C@H](O)[C@@H](O[C@H]3O[C@H](CO)[C@@H](O)[C@H](N)[C@H]3O)[C@H](N)C[C@@H]2N)[C@H](O)[C@@H](O)[C@@H]1O [KM-A, kanamycin A] | > | 200
CN[C@@H]1[C@@H](O)[C@@H](O[C@@H]2[C@@H](O)[C@H](O[C@H]3OC(CN)=CC[C@H]3N)[C@@H](N)C[C@H]2N)OC[C@]1(C)O [SSM, sisomicin] | > | 200
